TESTED TARGET: ATP-binding cassette sub-family C member 2 (Rattus norvegicus)
Sequence (Q63120 whole entry): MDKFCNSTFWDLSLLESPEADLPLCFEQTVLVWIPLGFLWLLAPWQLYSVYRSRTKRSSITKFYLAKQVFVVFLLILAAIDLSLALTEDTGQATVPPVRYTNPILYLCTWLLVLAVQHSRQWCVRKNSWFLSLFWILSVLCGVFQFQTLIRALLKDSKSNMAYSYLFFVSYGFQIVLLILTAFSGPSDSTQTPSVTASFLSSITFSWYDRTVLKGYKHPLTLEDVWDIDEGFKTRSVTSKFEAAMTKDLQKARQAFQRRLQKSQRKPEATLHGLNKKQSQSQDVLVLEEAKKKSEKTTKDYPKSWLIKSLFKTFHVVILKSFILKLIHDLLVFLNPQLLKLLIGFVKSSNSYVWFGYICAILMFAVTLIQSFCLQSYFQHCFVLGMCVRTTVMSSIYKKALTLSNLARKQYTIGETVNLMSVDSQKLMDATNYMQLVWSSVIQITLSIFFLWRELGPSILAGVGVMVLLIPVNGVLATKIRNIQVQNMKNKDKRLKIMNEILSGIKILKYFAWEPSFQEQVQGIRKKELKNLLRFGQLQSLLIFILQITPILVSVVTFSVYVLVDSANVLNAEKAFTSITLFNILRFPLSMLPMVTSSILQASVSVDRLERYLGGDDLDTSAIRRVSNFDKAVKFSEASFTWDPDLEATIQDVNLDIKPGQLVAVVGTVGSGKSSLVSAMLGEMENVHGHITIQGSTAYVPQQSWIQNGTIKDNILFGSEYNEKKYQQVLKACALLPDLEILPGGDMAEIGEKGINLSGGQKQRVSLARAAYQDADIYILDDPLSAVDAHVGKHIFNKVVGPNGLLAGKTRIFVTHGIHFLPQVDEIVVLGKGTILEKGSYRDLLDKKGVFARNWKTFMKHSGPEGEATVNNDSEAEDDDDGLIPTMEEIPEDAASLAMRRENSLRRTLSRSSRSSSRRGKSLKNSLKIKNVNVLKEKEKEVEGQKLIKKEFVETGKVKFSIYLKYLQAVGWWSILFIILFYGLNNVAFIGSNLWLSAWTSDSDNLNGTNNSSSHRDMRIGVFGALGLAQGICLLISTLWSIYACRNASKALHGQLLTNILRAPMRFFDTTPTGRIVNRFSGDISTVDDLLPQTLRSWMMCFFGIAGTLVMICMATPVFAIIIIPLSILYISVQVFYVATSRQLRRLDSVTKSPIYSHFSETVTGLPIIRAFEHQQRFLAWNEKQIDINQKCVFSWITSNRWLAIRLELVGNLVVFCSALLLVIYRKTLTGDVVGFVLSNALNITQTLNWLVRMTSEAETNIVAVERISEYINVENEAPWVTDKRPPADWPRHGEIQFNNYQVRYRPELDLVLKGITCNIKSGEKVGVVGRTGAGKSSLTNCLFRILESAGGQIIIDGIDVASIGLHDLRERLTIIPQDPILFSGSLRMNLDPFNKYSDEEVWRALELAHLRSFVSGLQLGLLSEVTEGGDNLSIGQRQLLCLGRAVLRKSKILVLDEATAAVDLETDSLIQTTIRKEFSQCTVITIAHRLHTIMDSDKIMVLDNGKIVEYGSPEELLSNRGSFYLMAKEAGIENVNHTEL
ASSAY: TP_TRANSPORTER: inhibition of DNP-SG uptake in bile canalicular membrane vesicles from SD rat
Provide the reported log10 of Ki of each item.
Base-10 log of Ki, unit µM.

Inquiry: Form field: reported log10 of Ki of CN(Cc1cnc2nc(N)nc(N)c2n1)c1ccc(C(=O)N[C@@H](CCC(=O)O)C(=O)O)cc1 [METHOTREXATE]
Reply text: 2.66

Inquiry: Recorded log10 of Ki of CCCN(Cc1cnc2nc(N)nc(N)c2n1)c1ccc(C(=O)NC(CCCNC(=O)c2ccccc2)C(=O)O)cc1 (stereo not given) , please.
Reply text: 1.06

Inquiry: Could you share which log10 of Ki value was measured for Nc1nc(N)c2nc(CN3CCOc4cc(C(=O)NC(CCC(=O)O)C(=O)O)ccc43)cnc2n1 (stereo not given) ?
Reply text: 2.49

Inquiry: Fill blank: measured log10 of Ki of the compound C=CCN(Cc1cnc2nc(N)nc(N)c2n1)c1ccc(C(=O)NC(CCC(=O)O)C(=O)O)cc1 (stereo not given) is ____.
Reply text: 2.13

Inquiry: # lookup: log10 of Ki of Cc1cc(C(=O)NC(CCCC(=O)O)C(=O)O)ccc1N(C)Cc1cnc2nc(N)nc(N)c2n1 (stereo not given)
Reply text: 2.12
